Biological target: Nuclear factor erythroid 2-related factor 2 (Homo sapiens) (UniProt Q16236)
Sequence (whole entry): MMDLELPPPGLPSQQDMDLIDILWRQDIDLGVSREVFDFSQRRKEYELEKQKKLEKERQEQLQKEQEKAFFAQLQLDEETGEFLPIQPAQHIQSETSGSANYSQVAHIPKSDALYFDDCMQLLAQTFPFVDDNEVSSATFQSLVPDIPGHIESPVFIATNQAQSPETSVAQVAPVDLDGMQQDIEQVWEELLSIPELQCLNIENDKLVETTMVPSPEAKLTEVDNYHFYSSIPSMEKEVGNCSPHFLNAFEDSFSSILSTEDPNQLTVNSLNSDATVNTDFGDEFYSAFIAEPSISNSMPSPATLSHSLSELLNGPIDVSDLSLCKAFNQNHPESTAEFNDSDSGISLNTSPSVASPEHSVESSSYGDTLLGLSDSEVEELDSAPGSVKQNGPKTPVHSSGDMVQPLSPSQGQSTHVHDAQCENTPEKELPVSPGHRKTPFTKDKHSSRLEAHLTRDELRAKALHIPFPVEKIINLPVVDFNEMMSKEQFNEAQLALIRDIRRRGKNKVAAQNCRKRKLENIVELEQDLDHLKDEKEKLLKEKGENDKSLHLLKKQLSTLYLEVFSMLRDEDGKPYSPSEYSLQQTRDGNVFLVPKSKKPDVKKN
Test: Induction of Nrf2-mediated ARE activity in human HepG2-ARE-C8 cells at 0.1 uM after 12 hrs by luciferase reporter gene assay relative to control
Format: cell-based
READOUT NAME: fold change (FC)
Quick one: just the number, no unit, thanks!

// worked examples, fold change (FC) included
O=C(/C=C1\NCC2c3ccccc3CCN2C1=O)c1ccc(Cl)cc1 (stereo unspecified)	2.33
COc1ccc2c(c1)C1CN/C(=C\C(=O)c3ccc(F)cc3)C(=O)N1CC2 (stereo unspecified)	1.35

Please turn your attention to the following entry.
stdin: Consider the compound O=C(/C=C1\NCC2c3ccccc3CCN2C1=O)c1ccccc1Cl (stereo unspecified) and give its measured fold change (FC).
stdout: 2.19

Origin of measurements: ChEMBL document CHEMBL2429758
